Measurement Protocol: Cmax in plasma in hematopoietic stem cell transplant recipient human with GVHD
Format: ADME, organism-based
Parameter Measured: Cmax (ng/mL)
Give bare numbers, in ng/mL.

Prompt: Quickly give me recorded Cmax for CC[C@@H]([C@H](C)O)n1ncn(-c2ccc(N3CCN(c4ccc(OC[C@@H]5CO[C@@](Cn6cncn6)(c6ccc(F)cc6F)C5)cc4)CC3)cc2)c1=O [POSACONAZOLE]
Completion: 1460

###

Measurement Protocol: Cmax in fasted healthy human plasma at 400 mg administered as single dose suspension coadministered with acidic carbonated beverage
Format: ADME, organism-based
Parameters: dose 400 mg
Parameter Measured: Cmax (ng/mL)
Answers are plain numbers, in ng/mL.

Prompt: Please supply the value of reported Cmax for the item `CC[C@@H]([C@H](C)O)n1ncn(-c2ccc(N3CCN(c4ccc(OC[C@@H]5CO[C@@](Cn6cncn6)(c6ccc(F)cc6F)C5)cc4)CC3)cc2)c1=O`
Completion: 286

###

Measurement Protocol: Apparent volume of distribution in healthy human at 400 mg administered as single dose suspension coadministered with nutritional supplement and 10 mg metoclopramide
Type: ADME, organism-based
Condition Set: in vivo, po, read-out: Vc/F
Parameter Measured: Vd/F (L)
Numbers only, in L.

Prompt: Answer with the recorded Vd/F for the compound listed here: `CC[C@@H]([C@H](C)O)n1ncn(-c2ccc(N3CCN(c4ccc(OC[C@@H]5CO[C@@](Cn6cncn6)(c6ccc(F)cc6F)C5)cc4)CC3)cc2)c1=O`
Completion: 2280

###

Measurement Protocol: Cmax in fasted healthy human plasma at 400 mg administered as single dose suspension coadministered with proton pump inhibitor
Type: ADME, organism-based
Design: dose 400 mg
Parameter Measured: Cmax (ng/mL)
Give bare numbers, in ng/mL.

Prompt: Report Cmax for `CC[C@@H]([C@H](C)O)n1ncn(-c2ccc(N3CCN(c4ccc(OC[C@@H]5CO[C@@](Cn6cncn6)(c6ccc(F)cc6F)C5)cc4)CC3)cc2)c1=O`
Completion: 76.7

###

Measurement Protocol: Half life in healthy human at 400 mg administered as single dose suspension coadministered with nutritional supplement
Format: ADME, organism-based
Condition Set: in vivo
Parameter Measured: half-life
Form field: result (number plus unit)

Prompt: Give the reported value of half-life for this record: `CC[C@@H]([C@H](C)O)n1ncn(-c2ccc(N3CCN(c4ccc(OC[C@@H]5CO[C@@](Cn6cncn6)(c6ccc(F)cc6F)C5)cc4)CC3)cc2)c1=O`
Completion: 24.3 h

###

Measurement Protocol: Tmax in fasted healthy human at 400 mg administered as single dose suspension
Type: ADME, organism-based
Condition Set: in vivo
Parameter Measured: Tmax (h)
Give bare numbers, in h.

Prompt: Complete the entry with Tmax for CC[C@@H]([C@H](C)O)n1ncn(-c2ccc(N3CCN(c4ccc(OC[C@@H]5CO[C@@](Cn6cncn6)(c6ccc(F)cc6F)C5)cc4)CC3)cc2)c1=O [POSACONAZOLE]
Completion: 5

###

Measurement Protocol: AUC in fasted healthy human at 400 mg administered as single dose suspension after consumption of high fat meal
Type: ADME, organism-based
Condition Set: plasma
Parameter Measured: AUC (ng·h/mL)
Answers are plain numbers, in ng·h/mL.

Prompt: Consider the compound `CC[C@@H]([C@H](C)O)n1ncn(-c2ccc(N3CCN(c4ccc(OC[C@@H]5CO[C@@](Cn6cncn6)(c6ccc(F)cc6F)C5)cc4)CC3)cc2)c1=O` . State its measured AUC.
Completion: 21000

###

Measurement Protocol: Cmax in plasma in hematopoietic stem cell transplant recipient human with GVHD and diarrhea
Format: ADME, organism-based
Parameter Measured: Cmax (ng/mL)
Answers are plain numbers, in ng/mL.

Prompt: Return the recorded Cmax value; entry: CC[C@@H]([C@H](C)O)n1ncn(-c2ccc(N3CCN(c4ccc(OC[C@@H]5CO[C@@](Cn6cncn6)(c6ccc(F)cc6F)C5)cc4)CC3)cc2)c1=O [POSACONAZOLE]
Completion: 623

###

Measurement Protocol: Apparent total body clearance in fasted healthy human at 400 mg administered as single dose suspension coadministered with acidic carbonated beverage
Type: ADME, organism-based
Condition Set: in vivo
Parameter Measured: CL/F (mL/min)
Give bare numbers, in mL/min.

Prompt: Output measured CL/F for this item: CC[C@@H]([C@H](C)O)n1ncn(-c2ccc(N3CCN(c4ccc(OC[C@@H]5CO[C@@](Cn6cncn6)(c6ccc(F)cc6F)C5)cc4)CC3)cc2)c1=O [POSACONAZOLE]
Completion: 870

###

Measurement Protocol: AUC in fasted healthy human at 400 mg administered as single dose suspension after 20 mins after consumption of high fat meal
Type: ADME, organism-based
Design: dose 400 mg
Condition Set: plasma
Parameter Measured: AUC at 20 min (ng·h/mL)
One number for each entry, in ng·h/mL.

Prompt: Give the reported AUC at 20 min for this compound. `CC[C@@H]([C@H](C)O)n1ncn(-c2ccc(N3CCN(c4ccc(OC[C@@H]5CO[C@@](Cn6cncn6)(c6ccc(F)cc6F)C5)cc4)CC3)cc2)c1=O`
Completion: 21000

###

Measurement Protocol: Half life in healthy human at 400 mg administered as single dose suspension coadministered with nutritional supplement and 4 mg loperamide as two 2 mg tablets
Type: ADME, organism-based
Condition Set: in vivo
Parameter Measured: half-life (h)
One number for each entry, in h.

Prompt: Give reported half-life value for CC[C@@H]([C@H](C)O)n1ncn(-c2ccc(N3CCN(c4ccc(OC[C@@H]5CO[C@@](Cn6cncn6)(c6ccc(F)cc6F)C5)cc4)CC3)cc2)c1=O [POSACONAZOLE]
Completion: 27.5

###

Measurement Protocol: Apparent total body clearance in fasted healthy human at 400 mg administered as single dose suspension coadministered with acidic carbonated beverage and proton pump inhibitor
Assay type: ADME, organism-based
Condition Set: in vivo
Parameter Measured: CL/F (mL/min)
Give bare numbers, in mL/min.

Prompt: Specify CL/F for CC[C@@H]([C@H](C)O)n1ncn(-c2ccc(N3CCN(c4ccc(OC[C@@H]5CO[C@@](Cn6cncn6)(c6ccc(F)cc6F)C5)cc4)CC3)cc2)c1=O [POSACONAZOLE] and stop.
Completion: 1620
